- target desc: HMG-CoA Reductase (Rattus norvegicus)
- Construct: from tissue
- Sequence (P51639 whole entry): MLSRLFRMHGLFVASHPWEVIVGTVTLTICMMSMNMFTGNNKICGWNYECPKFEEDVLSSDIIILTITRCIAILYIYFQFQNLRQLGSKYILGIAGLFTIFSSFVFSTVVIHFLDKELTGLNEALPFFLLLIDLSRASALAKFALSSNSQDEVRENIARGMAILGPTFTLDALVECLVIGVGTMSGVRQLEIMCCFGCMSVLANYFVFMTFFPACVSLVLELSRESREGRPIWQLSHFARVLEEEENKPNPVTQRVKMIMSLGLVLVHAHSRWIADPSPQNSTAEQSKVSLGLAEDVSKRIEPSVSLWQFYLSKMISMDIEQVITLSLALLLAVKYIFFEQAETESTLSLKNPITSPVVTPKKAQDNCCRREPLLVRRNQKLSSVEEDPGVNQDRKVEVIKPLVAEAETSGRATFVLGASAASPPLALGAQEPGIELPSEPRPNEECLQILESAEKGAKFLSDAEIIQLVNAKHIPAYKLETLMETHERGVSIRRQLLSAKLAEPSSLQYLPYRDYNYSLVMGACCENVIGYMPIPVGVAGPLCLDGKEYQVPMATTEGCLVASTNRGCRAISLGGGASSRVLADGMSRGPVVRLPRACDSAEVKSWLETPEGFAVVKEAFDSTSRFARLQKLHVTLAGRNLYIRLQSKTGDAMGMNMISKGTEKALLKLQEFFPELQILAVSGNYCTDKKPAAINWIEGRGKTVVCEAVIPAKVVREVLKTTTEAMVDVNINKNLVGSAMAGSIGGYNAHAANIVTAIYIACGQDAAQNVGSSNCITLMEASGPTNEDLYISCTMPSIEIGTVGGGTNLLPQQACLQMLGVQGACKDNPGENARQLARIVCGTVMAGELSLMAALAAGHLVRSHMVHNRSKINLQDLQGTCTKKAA
- test protocol: Measurement of Inhibitory Activity on HMG-CoA Reductase (activity ratio of biosynthesis of cholesterol)
- Format: biochemical
- details: Relative value when the value of Compactin is 100
value kind: Activity ratio of Biosynthesis of Cholesterol, Reactive Inhibitory Potency

Worked examples, 2 molecules total:
Request: If you can, please state the reported Activity ratio of Biosynthesis of Cholesterol, Reactive Inhibitory Potency value of Cc1c(CC[C@H]2C[C@H](O)CC(=O)O2)c2c(c(C)c1N1Cc3ccccc3C1)CC(C)(C)O2 (racemic) [Compound No. 13] .
Result: 250

Request: // query: Cc1c(CCC(O)CC(O)CC(=O)O)c2c(c(C)c1N1Cc3ccccc3C1)CC(C)(C)O2 (centres unmarked) [Compound No. 12]
Result: 1500

(1) Cc1c2c(c(CC[C@H]3C[C@H](O)CC(=O)O3)c(C(C)C)c1NCc1ccccc1)OC(C)(C)C2 (racemic) [Compound No. 43]
(2) Cc1c(CC[C@@H]2C[C@@H](O)CC(=O)O2)c2c(c(C)c1-n1cc3ccccc3c1)CC(C)(C)O2 (relative stereo) [Compound No. 14]
(3) Cc1c(CCC(O)CC(O)CC(=O)O)c2c(c(C)c1-n1cc3ccccc3c1)CC(C)(C)O2 (racemic) [Compound No. 94]
Request: Please list the entries, largest Activity ratio of Biosynthesis of Cholesterol, Reactive Inhibitory Potency first. Field: ranking. Enter the labels in the order requested.
Result: 3, 2, 1
(3: 1550, 2: 250, 1: 170)
